Target: Toll-like receptor 4 (Mus musculus, UniProt Q9QUK6)
Sequence (Q9QUK6 whole entry): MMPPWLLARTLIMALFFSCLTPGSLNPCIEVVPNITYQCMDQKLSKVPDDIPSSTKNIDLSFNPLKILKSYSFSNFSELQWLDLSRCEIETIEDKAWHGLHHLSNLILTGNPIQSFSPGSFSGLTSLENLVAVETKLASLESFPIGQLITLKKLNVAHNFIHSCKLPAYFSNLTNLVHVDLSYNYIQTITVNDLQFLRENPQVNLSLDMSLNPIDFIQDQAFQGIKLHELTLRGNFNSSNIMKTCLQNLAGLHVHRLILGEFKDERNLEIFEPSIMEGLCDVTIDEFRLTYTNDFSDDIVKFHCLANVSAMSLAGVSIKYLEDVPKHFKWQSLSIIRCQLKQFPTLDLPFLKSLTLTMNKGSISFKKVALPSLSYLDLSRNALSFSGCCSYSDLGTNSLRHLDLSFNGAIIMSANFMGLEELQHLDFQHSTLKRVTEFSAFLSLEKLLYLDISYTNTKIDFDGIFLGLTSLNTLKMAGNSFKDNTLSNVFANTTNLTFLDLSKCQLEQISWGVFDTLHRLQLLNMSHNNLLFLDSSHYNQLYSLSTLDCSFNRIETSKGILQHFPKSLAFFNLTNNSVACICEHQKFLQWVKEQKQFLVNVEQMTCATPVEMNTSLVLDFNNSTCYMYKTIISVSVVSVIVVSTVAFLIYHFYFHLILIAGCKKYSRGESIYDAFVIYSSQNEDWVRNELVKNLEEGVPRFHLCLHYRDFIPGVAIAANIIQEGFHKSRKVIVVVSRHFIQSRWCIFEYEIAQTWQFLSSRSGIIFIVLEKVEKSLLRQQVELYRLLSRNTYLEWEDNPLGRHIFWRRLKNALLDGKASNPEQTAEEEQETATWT
Assay: Agonist activity at TLR4 in C57BL/6J mouse macrophages assessed as stimulation of TNFalpha release after 4 hrs by ELISA
Endpoint label: EC50 (µM)
Just the number in µM, nothing appended.

According to the records, this compound "CC(C)(C)OC(=O)[C@H](CCC1CCCCC1)NC(=O)c1ccc(N)c(CCc2ccc(O)cc2)c1" displays EC50 of 29.5

According to the records, this compound "CC(C)(C)OC(=O)[C@H](CCc1ccccc1)NC(=O)c1ccc(N)c(OCCc2ccc(O)cc2)c1" displays EC50 of 20.7

According to the records, this compound "COc1ccc(CC[C@H](NC(=O)c2ccc(N)c(CCc3ccc(O)cc3)c2)C(=O)OC(C)(C)C)cc1" displays EC50 of 22.2

According to the records, this compound "Cc1ccc(CC[C@H](NC(=O)c2ccc(N)c(CCc3ccc(O)cc3)c2)C(=O)OC(C)(C)C)cc1" displays EC50 of 21.6

According to the records, this compound "CC(C)(C)OC(=O)[C@H](CCc1ccccc1)NC(=O)c1ccc(N)c(CCc2ccc(O)cc2)c1" displays EC50 of 18.5

* * *

Target: Toll-like receptor 4 (Mus musculus)
Experiment: Agonist activity at TLR4 in C57BL/6J mouse macrophages assessed as stimulation of TNFalpha release at 50 uM after 4 hrs by ELISA
Calls of active or inactive are those of the source. How the calls were made is not given here.
Your response should consist of one outcome taken from active, inactive

Hey, what did the test say about "CC(C)(C)OC(=O)[C@H](CCc1ccccc1)NC(=O)c1ccc(N)c(OCCc2cccc(O)c2)c1" ?
active

Hey, what did the test say about "COc1ccc(CCc2cc(C(=O)N[C@@H](CCc3ccccc3)C(=O)OC(C)(C)C)ccc2N)cc1" ?
inactive

Hey, what did the test say about "CC(C)(C)OC(=O)[C@H](CCc1ccc(N)cc1)NC(=O)c1ccc(N)c(CCc2ccc(O)cc2)c1" ?
inactive

Hey, what did the test say about "N[C@@H](Cc1ccc2ccccc2c1)C(=O)Nc1ccc(C(=O)N[C@@H](CCc2ccccc2)C(=O)O)cc1OCCc1ccc(O)cc1" ?
active

Hey, what did the test say about "CC(C)(C)OC(=O)[C@H](CCc1ccccc1)NC(=O)c1ccc(N)c(-c2ccc(O)cc2)c1" ?
inactive

Hey, what did the test say about "C#CCC(C)(C)OC(=O)[C@H](CCc1ccccc1)NC(=O)c1ccc(N)c(CCc2ccc(O)cc2)c1" ?
inactive

Hey, what did the test say about "CC(=O)Nc1ccc(C(=O)N[C@@H](CCc2ccccc2)C(=O)OC(C)(C)C)cc1CCc1ccc(O)cc1" ?
inactive

Hey, what did the test say about "CC(C)(C)OC(=O)[C@H](CCc1ccccc1)NC(=O)c1ccc(N)c(OCCc2ccc(O)c(Cl)c2)c1" ?
inactive

Hey, what did the test say about "CSCC[C@H](N)C(=O)OC(C)(C)C" ?
inactive

Hey, what did the test say about "CC(C)OC(=O)[C@H](CCc1ccccc1)NC(=O)c1ccc(N)c(CCc2ccc(O)cc2)c1" ?
inactive

Hey, what did the test say about "CCCCCCCCNC(=O)[C@H](CCc1ccccc1)NC(=O)c1ccc(N)c(CCc2ccc(O)cc2)c1" ?
inactive

Hey, what did the test say about "CC(C)(C)OC(=O)[C@H](CCc1ccccc1)NC(=O)c1ccc(N)c(CCCc2ccc(O)cc2)c1" ?
active

Hey, what did the test say about "CC(C)[C@H](N)C(=O)OC(C)(C)C" ?
active

Hey, what did the test say about "N[C@@H](Cc1ccccc1)C(=O)Nc1ccc(C(=O)N[C@@H](CCc2ccccc2)C(=O)O)cc1OCCc1ccc(O)cc1" ?
active

Hey, what did the test say about "CCC(C)(C)OC(=O)[C@H](CCc1ccccc1)NC(=O)c1ccc(N)c(CCc2ccc(O)cc2)c1" ?
active

Hey, what did the test say about "CC(C)(C)OC(=O)[C@H](CCc1ccccc1)NC(=O)c1ccc(N)c(COc2ccc(O)cc2)c1" ?
active

Hey, what did the test say about "CC(C)(C)OC(=O)[C@H](CCc1ccccc1)NC(=O)c1ccc([N+](=O)[O-])c(OCCc2ccc(O)cc2)c1" ?
inactive

Hey, what did the test say about "CC(C)(C)OC(=O)[C@H](CCc1ccccc1)NC(=O)c1ccc(N)c(OCCc2ccccc2)c1" ?
inactive

Hey, what did the test say about "Cc1ccc(CC[C@H](NC(=O)c2ccc(N)c(CCc3ccc(O)cc3)c2)C(=O)OC(C)(C)C)cc1" ?
active

Hey, what did the test say about "NC(=O)[C@H](CCc1ccccc1)NC(=O)c1ccc(N)c(CCc2ccc(O)cc2)c1" ?
inactive

Hey, what did the test say about "CC(C)(C)OC(=O)[C@H](CCc1ccccc1)NC(=O)c1ccc(N)c(OCCc2ccc(O)c(F)c2)c1" ?
inactive

Hey, what did the test say about "CN(C(=O)c1ccc(N)c(CCc2ccc(O)cc2)c1)[C@@H](CCc1ccccc1)C(=O)OC(C)(C)C" ?
inactive

Hey, what did the test say about "CC(C)(C)OC(=O)[C@H](CCc1ccccc1)NC(=O)c1cc(N)cc(CCc2ccc(O)cc2)c1" ?
active

Hey, what did the test say about "CCCCCCCNC(=O)[C@H](CCc1ccccc1)NC(=O)c1ccc(N)c(CCc2ccc(O)cc2)c1" ?
inactive

Hey, what did the test say about "CC(C)(C)OC(=O)[C@H](CCc1ccccc1)NC(=O)c1cc(CCc2ccc(O)cc2)ccc1N" ?
inactive

Hey, what did the test say about "CCCCCCCCCNC(=O)[C@H](CCc1ccccc1)NC(=O)c1ccc(N)c(CCc2ccc(O)cc2)c1" ?
inactive

Hey, what did the test say about "CC(C)(C)OC(=O)[C@H](CCc1ccccc1)NC(=O)c1cccc(OCCc2ccc(O)cc2)c1" ?
inactive

Hey, what did the test say about "CC(C)(C)OC(=O)[C@H](CCc1ccc(O)cc1)NC(=O)c1ccc(N)c(CCc2ccc(O)cc2)c1" ?
inactive

Hey, what did the test say about "CC(C)(C)OC(=O)[C@H](CCc1ccccc1)NC(=S)c1ccc(N)c(CCc2ccc(O)cc2)c1" ?
inactive

Hey, what did the test say about "CC(C)(C)OC(=O)[C@H](CCc1ccccc1)NC(=O)c1ccc(N)c(Sc2ccc(O)cc2)c1" ?
inactive

Hey, what did the test say about "CC(C)(C)NC(=O)[C@H](CCc1ccccc1)NC(=O)c1ccc(N)c(CCc2ccc(O)cc2)c1" ?
inactive

Hey, what did the test say about "CC(C)(C)OC(=O)[C@H](CCCc1ccccc1)NC(=O)c1ccc(N)c(CCc2ccc(O)cc2)c1" ?
inactive

Hey, what did the test say about "CC(C)(C)OC(=O)[C@H](CCCCc1ccccc1)NC(=O)c1ccc(N)c(CCc2ccc(O)cc2)c1" ?
inactive

Hey, what did the test say about "CC(C)(C)OC(=O)[C@H](CCc1ccccc1)NC(=O)c1ccc(N)c(Nc2ccc(O)cc2)c1" ?
inactive

Hey, what did the test say about "CC[C@H](N)C(=O)OC(C)(C)C" ?
active

* * *

Molecular target: Toll-like receptor 4 (Mus musculus)
Experiment: Agonist activity at TLR4 in C57BL/6J mouse macrophages assessed as stimulation of TNFalpha release at 50 uM after 4 hrs by ELISA
Calls of active or inactive are those of the source. The rule behind the calls is not given here.
Your response should consist of one outcome taken from YES = active, NO = inactive

Hey, what did the test say about "CC(C)(C)OC(=O)[C@H](CCc1ccccc1)NC(=O)c1cccc(CCc2ccc(O)cc2)c1" ?
NO

Hey, what did the test say about "CC(C)(C)OC(=O)[C@H](CCc1ccccc1)NC(=O)c1ccc(N)c(OCCCc2ccc(O)cc2)c1" ?
NO

Hey, what did the test say about "COc1ccc(C[C@H](N)C(=O)Nc2ccc(C(=O)N[C@@H](CCc3ccccc3)C(=O)O)cc2OCCc2ccc(O)cc2)cc1" ?
YES

Hey, what did the test say about "CCCCCCCCCCNC(=O)[C@H](CCc1ccccc1)NC(=O)c1ccc(N)c(CCc2ccc(O)cc2)c1" ?
NO

Hey, what did the test say about "Nc1ccc(C(=O)N[C@@H](CCc2ccccc2)C(=O)O)cc1CCc1ccc(O)cc1" ?
NO

Hey, what did the test say about "CC(C)(C)OC(=O)[C@H](CCc1ccccc1)NCc1ccc(N)c(CCc2ccc(O)cc2)c1" ?
NO

Hey, what did the test say about "CC(C)(C)OC(=O)[C@H](CCc1ccccc1)NC(=O)c1ccc(N)c(Cc2ccc(O)cc2)c1" ?
NO

Hey, what did the test say about "CC(C)(C)OC(=O)[C@H](CCc1ccccc1)NC(=O)c1ccc(N)c(CCc2ccccc2)c1" ?
NO

Hey, what did the test say about "COc1ccc(CC[C@H](NC(=O)c2ccc(N)c(CCc3ccc(O)cc3)c2)C(=O)OC(C)(C)C)cc1" ?
YES

Hey, what did the test say about "CC(C)(C)OC(=O)[C@H](CCC1CCCCC1)NC(=O)c1ccc(N)c(CCc2ccc(O)cc2)c1" ?
YES

Hey, what did the test say about "CC(C)(C)OC(=O)[C@H](CCc1ccccc1)NC(=O)c1ccc(N)c(CCc2ccccc2O)c1" ?
NO

Hey, what did the test say about "CCCCCCNC(=O)[C@H](CCc1ccccc1)NC(=O)c1ccc(N)c(CCc2ccc(O)cc2)c1" ?
YES

Hey, what did the test say about "CC(C)C[C@H](N)C(=O)OC(C)(C)C" ?
YES

Hey, what did the test say about "CC(C)(C)OC(=O)[C@H](CCc1ccc(F)cc1)NC(=O)c1ccc(N)c(CCc2ccc(O)cc2)c1" ?
YES

Hey, what did the test say about "CC(C)(C)OC(=O)[C@H](CCc1ccccc1)NC(=O)c1ccc(N)c(C#Cc2ccc(O)cc2)c1" ?
NO

Hey, what did the test say about "Nc1ccc(C(=O)N[C@@H](CCc2ccccc2)C(=O)O)cc1OCCc1ccc(O)cc1" ?
NO

Hey, what did the test say about "CC(C)(C)OC(=O)[C@H](CCc1ccccc1)NC(=O)c1ccc(N)c(CCc2cccc(O)c2)c1" ?
YES

Hey, what did the test say about "CC(C)(C)OC(=O)[C@@H](N)Cc1ccccc1" ?
NO
